Data origin: patent US8822509B2

- target_system: μ-opioid receptors (MOP receptors) (Mus musculus, UniProt P42866)
- Construct: expressed in transfected cells; host or cells: HEK293
- Sequence (P42866 whole entry): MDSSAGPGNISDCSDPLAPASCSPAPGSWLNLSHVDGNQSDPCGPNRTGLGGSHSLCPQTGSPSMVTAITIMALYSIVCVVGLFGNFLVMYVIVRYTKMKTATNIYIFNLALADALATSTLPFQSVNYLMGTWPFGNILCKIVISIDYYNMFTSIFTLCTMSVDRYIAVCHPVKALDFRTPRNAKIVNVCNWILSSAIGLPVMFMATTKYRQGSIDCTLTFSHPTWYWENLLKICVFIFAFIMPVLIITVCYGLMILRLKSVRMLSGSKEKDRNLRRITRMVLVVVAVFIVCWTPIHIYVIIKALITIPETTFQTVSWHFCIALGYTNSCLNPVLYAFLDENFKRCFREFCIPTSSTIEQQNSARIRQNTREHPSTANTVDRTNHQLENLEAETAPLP
- Type: cell-based
- particulars: Conc 10^−12 M
outcome_measure: % of forskolin stimulated cyclic AMP response (%)
Write the number in % without appending the unit.

| chemical_structure | numeric_result |
| --- | --- |
| O=C(O)c1c(-c2ccc(F)cc2)no[n+]1[O-] | 82.2 |

Query: GET % of forskolin stimulated cyclic AMP response where system = μ-opioid receptors (MOP receptors) (Mus musculus, UniProt P42866) and item = `O=C(c1no[n+]([O-])c1-c1ccccc1)C(F)(F)F`
Response: 62.4

Query: Give μ-opioid receptors (MOP receptors) (Mus musculus, UniProt P42866) % of forskolin stimulated cyclic AMP response for the following compound: `[O-][n+]1onc(-c2ccc(F)cc2)c1-c1ccc(F)cc1`
Response: 42.9

====

- target_system: μ-opioid receptors (MOP receptors) (Mus musculus)
- Construct: expressed in transfected cells; host or cells: HEK293
- Assay type: cell-based
- particulars: Conc 10^−4 M
Consider the cut-off 70%. If the recorded % of forskolin stimulated cyclic AMP response is strictly smaller, the label is Fulfilled; if not, the label is Not fulfilled.

| chemical_structure | class_label |
| --- | --- |
| O=C(c1no[n+]([O-])c1-c1ccccc1)C(F)(F)F | Fulfilled |
| [O-][n+]1onc(-c2ccccc2)c1-c1ccccc1 | Not fulfilled |
| [O-][n+]1onc(-c2ccc(F)cc2)c1-c1ccc(F)cc1 | Fulfilled |
| Cc1c(-c2ccccc2)no[n+]1[O-] | Fulfilled |
| O=C1CCc2c1no[n+]2[O-] | Fulfilled |

Query: Does `Cc1c(-c2ccc(F)cc2)no[n+]1[O-]` have % of forskolin stimulated cyclic AMP response strictly under 70%?
Response: Not fulfilled

Query: Please state whether % of forskolin stimulated cyclic AMP response is below 70% for `Cc1c(C(=O)O)no[n+]1[O-]`
Response: Not fulfilled

Query: Hello, I'm reviewing records and need to know if % of forskolin stimulated cyclic AMP response of `O=C(O)c1c(-c2ccc(F)cc2)no[n+]1[O-]` is below 70%. Could you check?
Response: Not fulfilled

====

- target_system: μ-opioid receptors (MOP receptors) (Mus musculus, UniProt P42866)
- Construct: expressed in transfected cells; host or cells: HEK293
- Assay type: cell-based
- particulars: Conc 10^−8 M
Marks after values point to notes of the source that are not given here.
We begin with a simple list: items and their reported % of forskolin stimulated cyclic AMP response.

Some compounds with known % of forskolin stimulated cyclic AMP response results, for comparison:
| chemical_structure | result |
| --- | --- |
| O=Cc1c(-c2ccccc2)no[n+]1[O-] | 113.2^a % |
| COc1ccc(-c2no[n+]([O-])c2C)cc1 | 53.8^a % |

Here is the next item to consider.
Query: Report % of forskolin stimulated cyclic AMP response for `[O-][n+]1onc(-c2ccccc2)c1CO`
Response: 36.2^a %

====

- target_system: μ-opioid receptors (MOP receptors) (Mus musculus)
- Construct: expressed in transfected cells; host or cells: HEK293
- Assay type: cell-based
- particulars: Conc 10^−5 M
Marks after values point to notes of the source that are not given here.
Reported values of % of forskolin stimulated cyclic AMP response for individual entries

In the examples that follow, each entry is paired with its recorded % of forskolin stimulated cyclic AMP response.
| compound | result |
| --- | --- |
| Cc1c(-c2ccccc2)no[n+]1[O-] [Compound 13] | 109.4^a % |
| O=Cc1c(-c2ccccc2)no[n+]1[O-] [Compound 14] | 51.0^a % |
| [O-][n+]1onc(-c2ccccc2)c1CO [Compound 31] | 96.9^a % |

Query: Quickly give me recorded % of forskolin stimulated cyclic AMP response for COc1ccc(-c2no[n+]([O-])c2C)cc1 [Compound 24]
Response: 131.1^a %

====

- target_system: μ-opioid receptors (MOP receptors) (Mus musculus, UniProt P42866)
- Construct: expressed in transfected cells; host or cells: HEK293
- Type: cell-based
- particulars: Conc 10^−14 M
Marks after values point to notes of the source that are not given here.
outcome_measure: % of forskolin stimulated cyclic AMP response

| chemical_structure | result |
| --- | --- |
| O=Cc1c(-c2ccccc2)no[n+]1[O-] | 103.4^a % |
| Cc1c(-c2ccccc2)no[n+]1[O-] | 99.4^a % |

Consider the additional compound presented here.
Query: Determine from records and report % of forskolin stimulated cyclic AMP response for `[O-][n+]1onc(-c2ccccc2)c1CO`
Response: 77.5^a %

====

- target_system: μ-opioid receptors (MOP receptors) (Mus musculus, UniProt P42866)
- Construct: expressed in transfected cells; host or cells: HEK293
- Type: cell-based
- particulars: Conc 10^−18 M
// boundary case: % of forskolin stimulated cyclic AMP response equal to 70% maps to Condition not met; strictly smaller maps to Condition met

Consider the worked cases shown below.
| chemical_structure | class_label |
| --- | --- |
| O=Cc1c(-c2ccccc2)no[n+]1[O-] | Condition not met |
| CCc1c(C(=O)O)no[n+]1[O-] | Condition not met |
| CC(=O)c1c(-c2ccccc2)no[n+]1[O-] | Condition met |
| Cc1c(-c2ccc(F)cc2)no[n+]1[O-] | Condition not met |
| Cc1c(C(=O)O)no[n+]1[O-] | Condition met |
| O=C(c1no[n+]([O-])c1-c1ccccc1)C(F)(F)F | Condition met |
| [O-][n+]1onc(-c2ccccc2)c1CO | Condition not met |

Here is another compound to look at.
Query: Here's an entry: `Cc1c(-c2ccccc2)no[n+]1[O-]` . Is its % of forskolin stimulated cyclic AMP response below 70%?
Response: Condition met

====

- target_system: μ-opioid receptors (MOP receptors) (Mus musculus)
- Construct: expressed in transfected cells; host or cells: HEK293
- Type: cell-based
- particulars: Conc 10^−10 M
Marks after values point to notes of the source that are not given here.
outcome_measure: % of forskolin stimulated cyclic AMP response

Query: Report % of forskolin stimulated cyclic AMP response, nothing else, for this compound: O=C1CCc2c1no[n+]2[O-] [Compound 16]
Response: 101.3%

Query: Annotate the compound Cc1c(-c2ccccc2)no[n+]1[O-] [Compound 13] with its measured % of forskolin stimulated cyclic AMP response.
Response: 106.9%

Query: Please supply the value of reported % of forskolin stimulated cyclic AMP response for the item Cc1c(C(=O)O)no[n+]1[O-] [Compound 6]
Response: 61.5%

Query: For the compound CCc1c(C(=O)O)no[n+]1[O-] [Compound 8] , give its measured % of forskolin stimulated cyclic AMP response value.
Response: 79.4%

Query: // fetch % of forskolin stimulated cyclic AMP response given entry [O-][n+]1onc(-c2ccccc2)c1CO [Compound 31]
Response: 42.8^a %

Query: For the compound [O-][n+]1onc(-c2ccccc2)c1-c1ccccc1 [Compound 5] , report % of forskolin stimulated cyclic AMP response.
Response: 79.2%

====

- target_system: μ-opioid receptors (MOP receptors) (Mus musculus, UniProt P42866)
- Construct: expressed in transfected cells; host or cells: HEK293
- Assay type: cell-based
- particulars: Conc 10^−6 M
Criterion: % of forskolin stimulated cyclic AMP response strictly under 90%. Met: Fulfilled. Not met: Not fulfilled.

Before answering, review these 3 worked examples.
| chemical_structure | target_system | class_label |
| --- | --- | --- |
| [O-][n+]1onc(-c2ccccc2)c1-c1ccccc1 | μ-opioid receptors (MOP receptors) (Mus musculus, UniProt P42866) | Not fulfilled |
| COc1ccc(-c2no[n+]([O-])c2C)cc1 | μ-opioid receptors (MOP receptors) (Mus musculus, UniProt P42866) | Fulfilled |
| CCc1c(C(=O)O)no[n+]1[O-] | μ-opioid receptors (MOP receptors) (Mus musculus, UniProt P42866) | Not fulfilled |

Query: Hello, is % of forskolin stimulated cyclic AMP response of the following compound strictly smaller than 90%? `[O-][n+]1onc(-c2ccc(F)cc2)c1-c1ccc(F)cc1`
Response: Fulfilled

Query: Quick check: does `O=C(O)c1c(-c2ccc(F)cc2)no[n+]1[O-]` have % of forskolin stimulated cyclic AMP response under 90%?
Response: Not fulfilled

Query: Strictly below 90%: is that where % of forskolin stimulated cyclic AMP response of `CC(=O)c1c(-c2ccccc2)no[n+]1[O-]` sits?
Response: Fulfilled

====

- target_system: μ-opioid receptors (MOP receptors) (Mus musculus, UniProt P42866)
- Construct: expressed in transfected cells; host or cells: HEK293
- Type: cell-based
- particulars: Conc 10^−7 M
outcome_measure: % of forskolin stimulated cyclic AMP response
Form entry: enter the amount, then its unit.

In the examples that follow, each entry is paired with its recorded % of forskolin stimulated cyclic AMP response.
| chemical_structure | target_system | result |
| --- | --- | --- |
| CCc1c(C(=O)O)no[n+]1[O-] | μ-opioid receptors (MOP receptors) (Mus musculus, UniProt P42866) | 102.9% |
| O=C1CCc2c1no[n+]2[O-] | μ-opioid receptors (MOP receptors) (Mus musculus, UniProt P42866) | 119.9% |
| O=Cc1c(-c2ccccc2)no[n+]1[O-] | μ-opioid receptors (MOP receptors) (Mus musculus, UniProt P42866) | 121.5% |
| CC(=O)c1c(-c2ccccc2)no[n+]1[O-] | μ-opioid receptors (MOP receptors) (Mus musculus, UniProt P42866) | 83.2% |

Query: Identify measured % of forskolin stimulated cyclic AMP response associated with `O=C(c1no[n+]([O-])c1-c1ccccc1)C(F)(F)F`
Response: 68.4%
